Experiment: Cytotoxicity against human HepG2(2.2.15) cells after 9 days by neutral red dye uptake assay
Conditions: read-out: TC50
quantity kind: CC50 at 216 h (µg/mL)

>  <sample smiles>
Cc1nnsc1C(=O)N/C(C(=O)N1CCCCC1)=C(\Br)c1ccccc1Cl

>  <quantitative readout>
86.2

$$$$
>  <sample smiles>
Cc1nnsc1C(=O)N/C(C(=O)N1CCOCC1)=C(\Br)c1snnc1C

>  <quantitative readout>
47.7

$$$$
>  <sample smiles>
Cc1nnsc1/C(Cl)=C(/NC(=O)c1ccccc1)C(=O)N1CCOCC1

>  <quantitative readout>
577

$$$$
>  <sample smiles>
Cc1nnsc1C(=O)N/C(C(=O)N1CCCCC1)=C(\Br)c1ccc(Cl)cc1

>  <quantitative readout>
17.8

$$$$
>  <sample smiles>
Cc1nnsc1/C(Br)=C(/NC(=O)c1ccccc1)C(=O)N1CCOCC1

>  <quantitative readout>
333

$$$$
>  <sample smiles>
Cc1nnsc1C(=O)N/C(C(=O)N1CCCCC1)=C(\Br)c1ccccc1

>  <quantitative readout>
111

$$$$
>  <sample smiles>
CCN(CC)C(=O)/C(NC(=O)c1ccccc1)=C(/Br)c1snnc1C

>  <quantitative readout>
86.2

$$$$
>  <sample smiles>
Cc1nnsc1/C=C(/NC(=O)c1ccccc1)C(=O)N1CCCCC1

>  <quantitative readout>
231

$$$$
>  <sample smiles>
Nc1ccn([C@@H]2CS[C@H](CO)O2)c(=O)n1

>  <quantitative readout>
962

$$$$
>  <sample smiles>
Cc1nnsc1/C(Br)=C(/NC(=O)c1ccccc1)C(=O)N1CCCCC1

>  <quantitative readout>
192

$$$$
>  <sample smiles>
Cc1nnsc1C(=O)N/C(C(=O)N1CCCCC1)=C(\Cl)c1ccccc1

>  <quantitative readout>
64.2

$$$$

Where these numbers come from: ChEMBL document CHEMBL1157863
